# Target or test system: T1, ECD region of Her2 (human, UniProt P04626 23-652)
# T1 construct: extracellular domain; Generic target of the scFv screen; also called extracellular domain (ECD) of Her2 (ErbB2)
# Protocol text: screening after three rounds of phage selection, soluble periplasmic scFv
Observation type: binding result

>>> result("S1R3B1_BMV_1A1 (scFv, V domains shown, scFv, soluble from bacterial periplasm in the screen; also called Her2_S1R3B1_BMV_1A1) VH: EVQLVQSGAEVKEPGASVKVSCKASGYDFSNYGFSWVRQAPGQGLEWMGWISSYNGYTNYAQRLQGRVTMTTDTSTSTAYMELRSLRSDDTAVYYCARDRGLGNWYFDLWGQGTLVTVSS VL: QSVLTQPASVSGSPGQSITISCTGTSSDVGGYNYVSWYQQHPGKAPKLMIYEGSKRPSGVSNRFSGSKSGNTASLTISGLQAEDEADYYCSSYTTRSTRVFGGGTKLTVL")
"binds"
>>> result("S1R3A1_CS_1B10 (scFv, V domains shown, scFv, soluble from bacterial periplasm in the screen; also called Her2_S1R3A1_CS_1B10) VH: EVQLVQSGAEVKKPGASVRVSCKGSGNTFTGHYIHWVRQAPGQGLEWLGWIDPNTGDIQYSENFKGSVTLTRDPSINSVFMDLIRLTSDDTAMYYCAREGAGLANYYYYGLDVWGRGTMVTVSS VL: QTVVLQEPSFSVSPGGTVTLTCGLNFGSVSTAYYPSWYQQTPGQAPRTLIYGTNIRSSGVPDRFSGSIVGNKAALTITGAQTEDESDYYCALYMGSGMLFGGGTKVTVL")
"binds"
>>> result("S1R3B1_BMV_1H9 (scFv, V domains shown, scFv, soluble from bacterial periplasm in the screen; also called Her2_S1R3B1_BMV_1H9) VH: QVQLQESGAGLVKPSGTLSLTCAVSGGSISSGNWWSWVRQPPGKGLEWIGEISHSGSTNYNPSLKSRVTISVDKSKNQFSLNLSSVTAADTAVYYCARVRGTVGDTRGPDYWGQGTLVTVSS VL: SSELTQDPAVSVALGQTVRITCQGDSLRSYYASWYQQKPGQAPVLVIYGKNNRPSGIPDRFSGSSSGNTASLTITGAQAEDEADYYCNSRDSSGNHVVFGGGTKLTVL")
"binds"
